# Test system: Heat shock protein HSP 90 (rabbit reticulocyte lysate; luciferase refolding)
# Assay Method Text: HSP90 inhibitors, primary screen, cell lysate, luminescence (AID 1789);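 further: 0% = DMSO wells and 100% = 60 µM geldanamycin wells; inhibitors lower the luminescence because luciferase stays unfolded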
# Experimental Parameters: 3 h, at 5.6 µM
Among all 290,000 compounds or so, about 2,700 (0.93%) were called active.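 How the source made its calls: active means inhibition above the screen-wide mean plus 3 SD, computed separately per campaign (cut at about 16% in these data); inactive means the rest.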 This is one part of a sample in which actives are shown more often than they occur.
Outcomes: 1.0 for active, 0.0 for inactive

| Cpd Smiles | Class Label |
| --- | --- |
| Cc1ccc(C(=O)O/N=C(\N)c2ccccn2)cc1Cl | 1.0 |
| COCCCNC(=O)CNC(=O)c1nn(-c2ccc(OC)cc2)c(=O)c2ccccc12 | 0.0 |
| CC(C)(C)Nc1nc(-c2ccccn2)nc2ccccc12 | 0.0 |
| Cc1ccc(C)c(OCc2cc(C(=O)N3CCN(c4cnccn4)CC3)no2)c1 | 0.0 |
| COCc1nnc(NC(=O)c2ccc3c(c2)OCO3)s1 | 0.0 |

====

# Test system: Heat shock protein HSP 90 (rabbit reticulocyte lysate; luciferase refolding)
# Assay Method Text: HSP90 inhibitors, primary screen, cell lysate, luminescence (AID 1789);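 further: 0% = DMSO wells and 100% = 60 µM geldanamycin wells; inhibitors lower the luminescence because luciferase stays unfolded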
# Experimental Parameters: 3 h, at 5.6 µM, active compounds read high
In all, about 290,000 compounds went through this assay and about 2,700 (0.93%) were called active. What follows is part of a selection rich in actives, with near analogues and random picks from the rest.
Listed here: items and their measured inhibition.

| Molecule | Target Or Test System | inhibition |
| --- | --- | --- |
| Cc1ccc(S(=O)(=O)NCC(=O)Nc2ccc3c(c2)OCCO3)cc1 | Heat shock protein HSP 90 (rabbit reticulocyte lysate; luciferase refolding) | 5.88% (inactive) |
| COc1ccc(/C(C)=N\NC(=O)c2ccc(-c3ccccc3)cc2)c(F)c1 | Heat shock protein HSP 90 (rabbit reticulocyte lysate; luciferase refolding) | -2.33% (inactive) |
| NC(=O)Cc1ccc2c(c1)[nH]c1ccccc12 | Heat shock protein HSP 90 (rabbit reticulocyte lysate; luciferase refolding) | 5.37% (inactive) |
| O=C(OCc1ccc(-c2ccccc2)cc1)c1cccc(O)c1 | Heat shock protein HSP 90 (rabbit reticulocyte lysate; luciferase refolding) | 18.4% (active) |
| CN(Cc1ccccc1)C(=O)C1CCCN(c2ncnc3c2nc2n3CCCCC2)C1 (centres undefined) | Heat shock protein HSP 90 (rabbit reticulocyte lysate; luciferase refolding) | -4.53% (inactive) |
| COCC1CCN(C(=O)C2CCC(=O)N(Cc3cccc(C(F)(F)F)c3)C2)CC1 (centres undefined) | Heat shock protein HSP 90 (rabbit reticulocyte lysate; luciferase refolding) | 2.25% (inactive) |
| COc1ccc(C)cc1NC(=O)CNCc1cccs1 | Heat shock protein HSP 90 (rabbit reticulocyte lysate; luciferase refolding) | 9.78% (inactive) |
| CCOC(=O)CSc1nc(N2CCOCC2)c2c(c1C#N)CC(C(C)C)OC2 (centres undefined) | Heat shock protein HSP 90 (rabbit reticulocyte lysate; luciferase refolding) | 0.22% (inactive) |
| CCN(CC)S(=O)(=O)c1ccc(-c2cn3ccc(C)cc3n2)cc1 | Heat shock protein HSP 90 (rabbit reticulocyte lysate; luciferase refolding) | 1.15% (inactive) |
| Oc1ccc(-c2onc3ccc(Cl)cc23)cc1 | Heat shock protein HSP 90 (rabbit reticulocyte lysate; luciferase refolding) | -0.76% (inactive) |
| COc1ccc(C(=O)Nc2ccccc2C(=O)N/N=C/c2ccccc2OC)cc1 | Heat shock protein HSP 90 (rabbit reticulocyte lysate; luciferase refolding) | 50.3% (active) |
| Oc1ccc2ccccc2c1N=Nc1nccs1 | Heat shock protein HSP 90 (rabbit reticulocyte lysate; luciferase refolding) | 16.9% (active) |
| O=C(O)Cc1sc(-c2ccccc2)nc1-c1cccs1 | Heat shock protein HSP 90 (rabbit reticulocyte lysate; luciferase refolding) | -2.42% (inactive) |
| O=C(OCC(=O)c1c[nH]c2ccccc12)c1cccc(O)c1 | Heat shock protein HSP 90 (rabbit reticulocyte lysate; luciferase refolding) | -4.88% (inactive) |
| CC(C)Sc1ncnc2c1cnn2-c1ccccc1 | Heat shock protein HSP 90 (rabbit reticulocyte lysate; luciferase refolding) | -2.09% (inactive) |
| O=C1CCC(C(=O)N2CCC(O)(c3ccccc3)CC2)CN1CCc1ccccc1 (centres undefined) | Heat shock protein HSP 90 (rabbit reticulocyte lysate; luciferase refolding) | -4.78% (inactive) |
| CCSc1nnc(SCC(=O)NNC(=O)c2ccccc2F)s1 | Heat shock protein HSP 90 (rabbit reticulocyte lysate; luciferase refolding) | -3.94% (inactive) |
| COC(CNC(=O)c1ccc2c(c1)ncn2-c1cc(C)cc(C)c1)OC | Heat shock protein HSP 90 (rabbit reticulocyte lysate; luciferase refolding) | -2.44% (inactive) |
| CCc1ccccc1NC(=O)[C@@H]1CCC(=O)N1C1OC(=O)c2c1ccc(OC)c2OC (some centres undefined) | Heat shock protein HSP 90 (rabbit reticulocyte lysate; luciferase refolding) | -1.1% (inactive) |
| COc1ccc(/C=N/Nc2ccccc2C(=O)O)cc1 | Heat shock protein HSP 90 (rabbit reticulocyte lysate; luciferase refolding) | 24.7% (active) |
| CSc1nnc2ccc(-c3ccc(C)cc3)nn12 | Heat shock protein HSP 90 (rabbit reticulocyte lysate; luciferase refolding) | -5.22% (inactive) |
| O=C(Nc1ccn(Cc2ccccc2)n1)c1n[nH]c([N+](=O)[O-])c1Cl | Heat shock protein HSP 90 (rabbit reticulocyte lysate; luciferase refolding) | 22.3% (active) |
| C=C(C)COc1ccc(-c2ncncc2-c2ccc(OC)cc2)c(O)c1 | Heat shock protein HSP 90 (rabbit reticulocyte lysate; luciferase refolding) | 3.58% (inactive) |
| Cc1cc(C2=NNC(=Nc3ccc(S(=O)(=O)N4CCOCC4)cc3)SC2)c(C)n1CC1CCCO1 (centres undefined) | Heat shock protein HSP 90 (rabbit reticulocyte lysate; luciferase refolding) | 1.56% (inactive) |

====

# System: Heat shock protein HSP 90 (rabbit reticulocyte lysate; luciferase refolding)
# Assay Method Text: HSP90 inhibitors, primary screen, cell lysate, luminescence (AID 1789);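 further: 0% = DMSO wells and 100% = 60 µM geldanamycin wells; inhibitors lower the luminescence because luciferase stays unfolded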
# Experimental Parameters: 3 h, at 5.6 µM, active compounds read high
Screen size: about 290,000 compounds; about 2,700 (0.93%) were called active. Shown is part of a subset that was picked to be rich in actives.

| Compound | Quantity Unit | inhibition |
| --- | --- | --- |
| COc1cccc(N(CC(=O)NC2CCCC2)C(=O)Cn2nnc(-c3ccc(C)o3)n2)c1 | % | 0.72 |
| O=C(NCCCc1ccccc1)c1cc(COc2c(F)cccc2F)on1 | % | -1.08 |
| Cc1ccc(SCC(=O)NNC(=O)c2ccc(S(C)(=O)=O)cc2)cc1 | % | 2.29 |
| C=CCOc1c(Br)cc(/C=N\n2nnnc2N)cc1OC | % | 6.06 |
| O=c1c2ccccc2nc(N/N=C/c2ccccc2)n1O | % | -0.57 |
| COCCNc1ccc(-c2n[nH]c(=O)c3ccccc23)cc1[N+](=O)[O-] | % | 1.55 |
| CC(CC(=O)Nc1ccc(F)cc1F)S(=O)(=O)c1ccc2c(c1)NC(=O)CO2 (configuration not stated) | % | -2.21 |
| Cc1nc([N+](=O)[O-])cn1CC(=O)Nc1ccc(Cl)cc1 | % | -5.8 |
| CCOC(=O)c1c(C)[nH]c2c1-c1ccccc1C(=O)C2=O | % | -1.61 |
| CCOCCOC(=O)C1=C(C)NC(=O)NC1c1ccc2c(c1)OCO2 (configuration not stated) | % | -3.33 |
| CCc1ccc(NC(=O)NC(C)c2ccc3c(c2)OCO3)cc1 (configuration not stated) | % | 1.03 |
| Cc1cc(C)nc(S/C=C/C(=O)c2ccccc2)n1 | % | 34.3 |
| CCOc1cc(C2/C(=C(/O)c3ccc(S(=O)(=O)N4CCCCC4)cc3)C(=O)C(=O)N2CCOC)ccc1O (configuration not stated) | % | -4.72 |
| COC(=O)[C@@H](Cc1ccccc1)NC(=O)NCCc1ccccc1 | % | 5.73 |
| COc1cc(/C=C2/C(=O)NN(c3cccc(Cl)c3)C2=O)cc(Br)c1O | % | 4.77 |
| O=C(Nc1ccccc1)c1ccccc1NC(=O)C(F)(F)F | % | -1.41 |
| CCOC(=O)N1CCC(NC(=O)CCc2ccccc2)CC1 | % | 2.73 |
| Cc1ccc(NC(=O)C2CCCN2C(=O)OCc2ccccc2)cc1C (configuration not stated) | % | -2.49 |
| CCC(=O)Nc1c(S(=O)(=O)c2ccccc2)c2nc3ccccc3nc2n1Cc1ccccc1 | % | 5.13 |
| Cc1cccc(C(=O)OC(C)CN2CCCC2)c1 (configuration not stated) | % | 0.74 |
| Cn1c(-c2ccco2)nc2cc3ccccc3cc21 | % | 37.7 |
| Clc1c(OCCCn2ccnc2)ccc2ccccc12 | % | 1.78 |
| Cc1n[nH]c(C)c1S(=O)(=O)N1CCCC(C(=O)Nc2ccc(Br)cc2)C1 (configuration not stated) | % | -0.76 |
| O=C(C1CCN(Cc2ccc(Cl)cc2)CC1)N1CCN(Cc2ccc3c(c2)OCO3)CC1 | % | 3.57 |
| COCc1cc(=O)[nH]c(-c2ccc(C(F)(F)F)cc2)n1 | % | -1.15 |
| COc1cc(C(=O)OCC(=O)NC(C)CCc2ccccc2)cc(OC)c1OC (configuration not stated) | % | 0.2 |
| CCOC(=O)C1=C(c2ccc(OC)cc2)C(=O)c2ccccc2C1=O | % | 87.2 |
